- Test system: SF-539 CNS
- Method notes: NCI tumour cell line growth inhibition, 48 h
Documented GI50 across a set of compounds
Experimental endpoint: GI50

* COC(=O)[C@]12CCC(C)(C)C[C@H]1C1=CC[C@@H]3[C@@]4(C)C/C(=C/c5cccnc5)C(=O)C(C)(C)[C@@H]4CC[C@@]3(C)[C@]1(C)CC2 | 7430 nM
* CC(C)(C)OC(=O)N(CCCN(CCn1c2c(c3ccccc3c1=O)C(=O)c1ccccc1-2)C(=O)OC(C)(C)C)CCn1c2c(c3ccccc3c1=O)C(=O)c1ccccc1-2 | > 50000 nM
* O=C(CCCSc1nc(-c2ccc(Cl)cc2)cc(-c2ccc(Cl)cc2)n1)NO | 1260 nM
* COc1ccc2cc(C(=O)/C=C/c3cccc(OC)c3OC)ccc2c1 | 11100 nM
* N#C/C(C(=S)Nc1ccccc1)=C1/NN=C2c3ccccc3C(=O)NN21 | 18700 nM
* COc1cc(C(=O)O[C@H](C(N)=O)[C@]2(C)CO2)c2ccccc2c1 | 2410 nM
* CC(=O)[O][Hg][c]1c(C)c(C)c(C)c(C)c1C | 1660 nM
* C[C@]12CC[C@@H]3c4ccc(O)cc4CC[C@H]3[C@@H]1CC[C@@H]2NS(=O)(=O)c1ccc(C(F)(F)F)cc1 | 1600 nM
* COc1cc([C@@H]2c3cc4c(cc3C(O[C@@H]3O[C@@H]5CO[C@@H](c6cccs6)OC5[C@H](O)[C@H]3O)C3COC(=O)[C@@H]32)OCO4)cc(OC)c1O (some centres not stated) | 26.8 nM
* NC(N)=NC(N)=Nc1cc2ccccc2c2ccccc12 | 10600 nM
* Cc1[nH]c(N=Nc2ccccc2)nc1N=Nc1ccccc1 | 2600 nM
* Cn1cc(C2=C(c3cn(C)c4c(N)cccc34)C(=O)NC2=O)c2ccccc21 | 590 nM

====

- Tested on: KM12 colon
- Method notes: NCI tumour cell line growth inhibition, 48 h
Experimental endpoint: GI50

- CC(C)CSc1nc(Nc2ccccc2)c(C#N)c(-c2ccc(F)cc2)n1: 48200 nM
- COc1cc(Cn2c(-c3ccccc3)cc3c2-c2oncc2CC3)cc(OC)c1OC: 585 nM
- CCCCn1c(-c2ccc(C(=O)O/N=C(\N)c3ccc(OC)cc3)cc2)nc(-c2ccccc2)c1-c1ccccc1: 2910 nM
- CCCNC(=S)N/N=C(\C)c1ccccn1: 426 nM
- C[C@]12CC[C@@H]3c4ccc(O)cc4CC[C@H]3[C@@H]1CC[C@@H]2NS(=O)(=O)c1ccc(C(F)(F)F)cc1: 1870 nM
- COC(=O)c1cc2c(c(C(=O)OC)c1O)C(=O)C=CC2=O: > 9100 nM

====

Documented GI50 across a set of compounds
- System: SK-MEL-2 melanoma
- Method notes: NCI tumour cell line growth inhibition, 48 h
Experimental endpoint: GI50

• C[C@]12CC[C@@H]3c4ccc(O)cc4CC[C@H]3[C@@H]1CC[C@@H]2NS(=O)(=O)c1ccc(C(F)(F)F)cc1 = 2.13 µM
• Cc1[nH]c(N=Nc2ccccc2)nc1N=Nc1ccccc1 = 3.59 µM
• COc1cc(Cn2c(-c3ccccc3)cc3c2-c2oncc2CC3)cc(OC)c1OC = 18.6 µM
• CC(C)CSc1nc(Nc2ccccc2)c(C#N)c(-c2ccc(F)cc2)n1 = 13.7 µM
• N#C/C(C(=S)Nc1ccccc1)=C1/NN=C2c3ccccc3C(=O)NN21 = 21 µM
• C=C1C(=O)O[C@H]2[C@H]1CC/C(COC(=O)/C=C\C(=O)NCc1ccc(Cn3c(=O)sn(-c4ccc(C#N)cc4)c3=O)cc1)=C\CC[C@@]1(C)O[C@@H]21 = 0.935 µM
• Cc1c2c(nn1-c1ccc(S(=O)(=O)/N=C3\SCC(=O)N3C(=O)c3ccccc3)cc1)-c1ccccc1CC2 = > 100 µM
• O=C(CCCSc1nc(-c2ccc(Cl)cc2)cc(-c2ccc(Cl)cc2)n1)NO = 4.02 µM
• Nc1nccc(-c2c(-c3ccc(F)cc3)ncn2CCCN2CCOCC2)n1 = > 25 µM
• COc1cccc(NCc2nnc(Nc3ccc(Cl)cc3)c3ccccc23)c1 = 0.708 µM
• Cn1cc(-c2csc(-c3cccc(F)c3)n2)c2cccnc21 = 23.5 µM
• CCCNC(=S)N/N=C(\C)c1ccccn1 = 3.58 µM
• CC(C)(C)OC(=O)N(CCCN(CCn1c2c(c3ccccc3c1=O)C(=O)c1ccccc1-2)C(=O)OC(C)(C)C)CCn1c2c(c3ccccc3c1=O)C(=O)c1ccccc1-2 = > 50 µM
• CN1C(NC(=O)c2ccc(Cl)nc2)=NS(=O)(=O)c2cc(Cl)ccc21 = > 100 µM
• CCCCCCCCCCC(O)C1CCC(C2CCC(C(O)CCCCC(O)CCCCCC(O)CC3=CC(C)OC3=O)O2)O1 (stereo not given) = 3.62 µM
